Catalogue of Ki readings, one per entry.
# System: Glutamate receptor 4 (Homo sapiens)
# Sequence (P48058 whole entry): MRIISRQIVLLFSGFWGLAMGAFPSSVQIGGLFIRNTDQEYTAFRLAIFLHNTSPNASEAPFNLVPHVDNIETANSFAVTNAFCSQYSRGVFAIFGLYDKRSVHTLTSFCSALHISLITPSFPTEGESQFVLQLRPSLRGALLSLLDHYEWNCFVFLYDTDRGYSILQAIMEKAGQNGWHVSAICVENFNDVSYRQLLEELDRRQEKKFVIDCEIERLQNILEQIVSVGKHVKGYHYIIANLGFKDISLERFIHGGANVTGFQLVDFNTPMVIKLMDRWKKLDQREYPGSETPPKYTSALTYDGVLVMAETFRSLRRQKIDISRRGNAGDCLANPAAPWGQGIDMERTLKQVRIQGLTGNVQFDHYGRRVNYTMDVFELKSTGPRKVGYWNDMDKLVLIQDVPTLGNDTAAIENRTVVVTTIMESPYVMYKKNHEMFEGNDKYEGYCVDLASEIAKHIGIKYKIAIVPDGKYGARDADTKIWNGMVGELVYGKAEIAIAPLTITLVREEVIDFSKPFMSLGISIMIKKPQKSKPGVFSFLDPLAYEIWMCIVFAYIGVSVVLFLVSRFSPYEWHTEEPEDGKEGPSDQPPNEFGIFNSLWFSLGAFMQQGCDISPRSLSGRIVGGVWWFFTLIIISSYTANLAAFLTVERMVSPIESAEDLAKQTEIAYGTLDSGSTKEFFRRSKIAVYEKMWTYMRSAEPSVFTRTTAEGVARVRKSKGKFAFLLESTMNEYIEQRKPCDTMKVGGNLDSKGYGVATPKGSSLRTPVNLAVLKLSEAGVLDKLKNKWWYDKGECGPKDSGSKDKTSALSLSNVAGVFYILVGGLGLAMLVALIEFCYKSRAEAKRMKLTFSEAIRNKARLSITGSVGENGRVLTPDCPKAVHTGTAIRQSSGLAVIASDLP
# Assay overview: biochemical
Respond numerically; units are nM and should not be typed.

| Molecule | Ki (nM) |
| --- | --- |
| N[C@@H](Cn1cc(F)c(=O)[nH]c1=O)C(=O)O | 305 |
| N[C@@H](Cn1ccc(=O)[nH]c1=O)C(=O)O [(S)-WILLARDIINE] | 8850 |

Answer with the recorded Ki for the molecule listed here: N[C@@H](Cn1nc(Cl)c(=O)[nH]c1=O)C(=O)O
3.6

Answer with the recorded Ki for the molecule listed here: N[C@@H](Cn1nc(Br)c(=O)[nH]c1=O)C(=O)O
7.9

Answer with the recorded Ki for the molecule listed here: N[C@@H](Cn1cc(Br)c(=O)[nH]c1=O)C(=O)O
457

Answer with the recorded Ki for the molecule listed here: Cc1nn(C[C@H](N)C(=O)O)c(=O)[nH]c1=O
89

Answer with the recorded Ki for the molecule listed here: N[C@@H](Cn1cc(Cl)c(=O)[nH]c1=O)C(=O)O
451

Answer with the recorded Ki for the molecule listed here: N[C@@H](Cn1cc(I)c(=O)[nH]c1=O)C(=O)O
972

Answer with the recorded Ki for the molecule listed here: N[C@@H](Cn1cc([N+](=O)[O-])c(=O)[nH]c1=O)C(=O)O
207

###

# System: Glutamate receptor 1 (Homo sapiens)
# Sequence (P42261 whole entry): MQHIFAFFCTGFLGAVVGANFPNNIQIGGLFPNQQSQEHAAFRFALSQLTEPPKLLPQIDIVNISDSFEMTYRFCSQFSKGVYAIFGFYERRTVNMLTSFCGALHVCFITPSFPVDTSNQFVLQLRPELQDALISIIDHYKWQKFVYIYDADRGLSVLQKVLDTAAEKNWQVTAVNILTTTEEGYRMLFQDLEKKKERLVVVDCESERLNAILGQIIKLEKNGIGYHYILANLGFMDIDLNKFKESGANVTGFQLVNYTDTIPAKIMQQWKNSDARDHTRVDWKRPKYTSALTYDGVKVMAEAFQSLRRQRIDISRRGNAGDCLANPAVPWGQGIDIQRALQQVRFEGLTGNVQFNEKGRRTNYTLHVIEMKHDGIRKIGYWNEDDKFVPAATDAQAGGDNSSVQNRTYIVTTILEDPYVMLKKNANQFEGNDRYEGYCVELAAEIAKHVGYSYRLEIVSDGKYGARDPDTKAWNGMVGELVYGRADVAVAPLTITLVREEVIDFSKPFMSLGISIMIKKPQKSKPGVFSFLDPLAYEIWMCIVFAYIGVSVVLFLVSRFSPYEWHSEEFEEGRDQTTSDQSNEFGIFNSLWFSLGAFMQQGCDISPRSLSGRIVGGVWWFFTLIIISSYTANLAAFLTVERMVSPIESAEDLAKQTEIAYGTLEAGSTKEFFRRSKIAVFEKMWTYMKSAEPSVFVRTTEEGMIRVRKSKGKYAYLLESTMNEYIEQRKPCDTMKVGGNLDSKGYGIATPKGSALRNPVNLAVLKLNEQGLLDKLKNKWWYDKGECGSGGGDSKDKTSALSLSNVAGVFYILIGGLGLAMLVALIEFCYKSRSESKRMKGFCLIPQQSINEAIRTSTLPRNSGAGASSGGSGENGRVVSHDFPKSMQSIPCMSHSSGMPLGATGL
pKi: −log10 of the molar value.
Entry flag: y if pKi reaches 7; n if it does not.

| Molecule | Qualitative label |
| --- | --- |
| N[C@@H](Cn1cc([N+](=O)[O-])c(=O)[nH]c1=O)C(=O)O | n |
| N[C@@H](Cn1cc(F)c(=O)[nH]c1=O)C(=O)O | y |
| N[C@@H](Cn1nc(Cl)c(=O)[nH]c1=O)C(=O)O | y |

Now for a further molecule.
State whether the measured pKi reaches 7, counting equality as reaching it, for N[C@@H](Cn1ccc(=O)[nH]c1=O)C(=O)O [(S)-WILLARDIINE]
n

###

A short record of pKi observed with Glutamate receptor 2 (Homo sapiens, UniProt P42262) follows.
Sequence (P42262 whole entry): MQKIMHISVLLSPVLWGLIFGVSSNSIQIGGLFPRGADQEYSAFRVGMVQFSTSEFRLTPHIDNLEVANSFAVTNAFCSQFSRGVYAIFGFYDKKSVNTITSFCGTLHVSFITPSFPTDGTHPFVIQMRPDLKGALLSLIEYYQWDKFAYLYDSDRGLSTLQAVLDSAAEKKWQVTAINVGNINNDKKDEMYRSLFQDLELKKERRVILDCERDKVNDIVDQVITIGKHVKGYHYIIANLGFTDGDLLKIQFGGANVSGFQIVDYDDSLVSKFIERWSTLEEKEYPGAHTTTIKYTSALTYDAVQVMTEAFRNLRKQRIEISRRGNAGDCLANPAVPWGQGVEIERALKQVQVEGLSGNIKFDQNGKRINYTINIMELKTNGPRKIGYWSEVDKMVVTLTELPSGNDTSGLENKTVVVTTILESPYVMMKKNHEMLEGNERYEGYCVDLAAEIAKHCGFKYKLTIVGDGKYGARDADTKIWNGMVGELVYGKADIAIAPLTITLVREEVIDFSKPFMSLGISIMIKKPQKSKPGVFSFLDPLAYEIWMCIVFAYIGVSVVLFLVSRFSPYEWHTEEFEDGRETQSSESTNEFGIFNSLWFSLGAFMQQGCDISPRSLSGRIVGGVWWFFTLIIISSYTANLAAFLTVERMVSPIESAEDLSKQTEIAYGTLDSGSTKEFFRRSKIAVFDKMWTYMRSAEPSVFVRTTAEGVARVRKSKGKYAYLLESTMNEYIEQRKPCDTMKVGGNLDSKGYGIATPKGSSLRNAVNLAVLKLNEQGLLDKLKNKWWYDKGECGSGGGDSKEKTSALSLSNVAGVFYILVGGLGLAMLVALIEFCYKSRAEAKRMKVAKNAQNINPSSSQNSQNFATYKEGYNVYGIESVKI
pKi here: minus log base 10 of the concentration, concentration in moles per litre.

| Compound structure string | System | pKi |
| --- | --- | --- |
| N[C@@H](Cn1nc(Cl)c(=O)[nH]c1=O)C(=O)O | Glutamate receptor 2 (Homo sapiens, UniProt P42262) | 7.78 |

Alright, here's another compound for you.
Answer with the recorded pKi for the compound listed here: N[C@@H](Cn1ncc(=O)[nH]c1=O)C(=O)O
6.34

###

A short record of Ki observed with Glutamate receptor 1 (Homo sapiens) follows.
Respond numerically; units are nM and should not be typed.

| Compound structure string | Observable | Quantitative readout |
| --- | --- | --- |
| N[C@@H](Cn1cc(Br)c(=O)[nH]c1=O)C(=O)O | Ki | 92 |
| N[C@@H](Cn1nc(I)c(=O)[nH]c1=O)C(=O)O | Ki | 73.9 |

Answer with the recorded Ki for the molecule listed here: N[C@@H](Cn1cc(I)c(=O)[nH]c1=O)C(=O)O
163

Answer with the recorded Ki for the molecule listed here: N[C@@H](Cn1cc(Cl)c(=O)[nH]c1=O)C(=O)O
65
